B1: library; a variant is named by its letters at N, in order (parent)
chain: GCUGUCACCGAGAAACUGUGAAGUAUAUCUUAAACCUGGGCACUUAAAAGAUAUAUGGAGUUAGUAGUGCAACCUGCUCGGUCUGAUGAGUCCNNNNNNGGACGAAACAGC

Variants of: B1
ASSAY SUMMARY: normalized RNA/DNA level with ligand (relative to sTRSVctl = 100) (log10 (% of sTRSVctl)); HEK293T; ligand: cyclic di-GMP (c-di-GMP-II aptamer); ligand concentration (+) RNA-Seq: 1 mM; higher = less ribozyme self-cleavage, higher mRNA level
STATED CONDITIONS: reporter: mCherry (pCS4076), ligand present: yes
QUANTITY MEASURED: normalized RNA/DNA level with ligand (log10)
// no unit, no text: just the number

VARIANT DESIGNATION: CCAAAA
MEASURED RESULT: 1.62
--
VARIANT DESIGNATION: GCACUA
MEASURED RESULT: 1.75
--
VARIANT DESIGNATION: UAUAGG
MEASURED RESULT: 1.85
--
VARIANT DESIGNATION: GAUUAC
MEASURED RESULT: 1.83
--
VARIANT DESIGNATION: UGGUGC
MEASURED RESULT: 1.86

Fill in the blank: the reported normalized RNA/DNA level with ligand (log10) of `CUGUAG` is ____.
1.84

Quick one: `AAGAGU`
1.71

Next variant up: `GUCAAA`
1.73

Repeat for the following variant: `UAAUUC`
1.84

Another variant to check: `CCGCGG`
1.85

Continue with `UAGCCU`
1.86

Each recorded value in this set is attributed to the supplement of paper PMC6757056.
